- System: Vaccinia virus
- assay.remarks: Antiviral activity against Vaccinia virus infected in HEL cells assessed as inhibition of virus-induced cytopathic effect
- Format: functional, organism-based
- condition.parameters: Orthopoxvirus vaccinia
pEC50: −log10 of the molar value.
Each item that follows carries a reported pEC50.

- smiles.structure: "CC(=O)N[C@H]1[C@H](O[C@@H]2c3ccc(c(Cl)c3)Oc3cc4cc(c3O)Oc3ccc(cc3Cl)C[C@H]3NC(=O)[C@H](N)c5ccc(O)c(c5)Oc5cc(O)cc(c5)[C@H](NC3=O)C(=O)N[C@H]4C(=O)N[C@H]3C(=O)N[C@@H]2C(=O)N[C@H](C(=O)O)c2cc(O)cc(O)c2-c2cc3ccc2O)O[C@H](CO)[C@@H](O)[C@@H]1O"
  pEC50: "< 4.00"
- smiles.structure: "CC(=O)N[C@H]1[C@H](O[C@@H]2c3ccc(c(Cl)c3)Oc3cc4cc(c3O)Oc3ccc(cc3Cl)C[C@H]3NC(=O)[C@H](n5cc6ccccc6c5Sc5ccccc5)c5ccc(O)c(c5)Oc5cc(O)cc(c5)[C@H](NC3=O)C(=O)N[C@H]4C(=O)N[C@H]3C(=O)N[C@@H]2C(=O)N[C@H](C(=O)O)c2cc(O)cc(O)c2-c2cc3ccc2O)O[C@H](CO)[C@@H](O)[C@@H]1O"
  pEC50: "< 4.70"
- smiles.structure: "CC(=O)N[C@H]1[C@H](O[C@@H]2c3ccc(c(Cl)c3)Oc3cc4cc(c3O)Oc3ccc(cc3Cl)C[C@H]3NC(=O)[C@H](n5cc6cc7ccccc7cc6c5Sc5ccccc5)c5ccc(O)c(c5)Oc5cc(O)cc(c5)[C@H](NC3=O)C(=O)N[C@H]4C(=O)N[C@H]3C(=O)N[C@@H]2C(=O)N[C@H](C(=O)O)c2cc(O)cc(O)c2-c2cc3ccc2O)O[C@H](CO)[C@@H](O)[C@@H]1O"
  pEC50: "< 4.70"
- smiles.structure: "CC(=O)N[C@H]1[C@H](O[C@@H]2c3ccc(c(Cl)c3)Oc3cc4cc(c3O)Oc3ccc(cc3Cl)C[C@H]3NC(=O)[C@H](n5cc6ccccc6c5Sc5ncccn5)c5ccc(O)c(c5)Oc5cc(O)cc(c5)[C@H](NC3=O)C(=O)N[C@H]4C(=O)N[C@H]3C(=O)N[C@@H]2C(=O)N[C@H](C(=O)O)c2cc(O)cc(O)c2-c2cc3ccc2O)O[C@H](CO)[C@@H](O)[C@@H]1O"
  pEC50: "≤ 4.24"
- smiles.structure: "Nc1nc2c(ncn2COCCO)c(=O)[nH]1"
  pEC50: "≤ 3.60"
- smiles.structure: "Nc1nc2c(ncn2COC(CO)CO)c(=O)[nH]1"
  pEC50: "< 4.00"
